- TARGET_OF_ASSAY: UniProtKB B2RLK2
- ASSAY_SETUP: compound concentration 10^−9 mol/l
Below, each entry is listed with its recorded Enzyme inhibitory activity (%) KGP.
Please state the figure in %; there is no need to write the unit.

// below: answered compounds
CNC(=O)CC[C@H](NC(=O)OCc1ccccc1)C(=O)N[C@@H](CCCCN)C(=O)C(=O)NCc1ccccc1.Cl :: 97.3
Cl.NCCCC[C@H](NC(=O)[C@H](CCC(=O)O)NC(=O)OCc1ccccc1)C(=O)C(=O)NCCc1ccccc1 :: 67.0
Cl.NCCCC[C@H](NC(=O)[C@H](CCC(=O)O)NC(=O)OCc1ccccc1)C(=O)C(=O)Nc1ccccc1 :: 71.3

# Enzyme inhibitory activity (%) KGP (compound: Cl.Cl.NCCCC[C@H](NC(=O)[C@H](CCC(=O)N1CCNCC1)NC(=O)OCc1ccccc1)C(=O)C(=O)NCc1ccccc1 ) is 98.5
